Substrate: [H][C@]12C[C@]([H])(OO1)[C@H](C/C=C\CCCC(=O)O)[C@H]2/C=C/[C@@H](O)CCCCC
test: PGDS activity kinetics of L-PGDS mutants
Type: biochemical, mouse
measurement_conditions: other: Km for PGH2, pH=8.0, 25.0 °C
measured_attribute: kcat/Km (µM^-1Min^-1)
Give your result in µM^-1Min^-1 as a bare value.

[
  {
    "protein": "mouse L-PGDS mutant S81A (Ser^81Ala) in Cys^89,186Ala construct (Mus musculus; C186A/C89A/S81A) (protein) QGHDTVQPNFQQDKFLGRWYSAGLASNSSWFREKKAVLYMCKTVVAPSTEGGLNLTATFLRKNQAETKIMVLQPAGAPGHYTYSSPHSGSIHSVSVVEANYDEYALLFSRGTKGPGQDFRMATLYSRTQTLKDELKEKFTTFSKAQGLTEEDIVFLPQPDKAIQE",
    "measured_attribute": "kcat/Km",
    "measured_value": 0.50
  }
]

Which kcat/Km is reported for this protein? mouse L-PGDS mutant R85E (Arg^85Glu) in Cys^89,186Ala construct (Mus musculus; C186A/C89A/R85E) (protein) QGHDTVQPNFQQDKFLGRWYSAGLASNSSWFREKKAVLYMCKTVVAPSTEGGLNLTSTFLEKNQAETKIMVLQPAGAPGHYTYSSPHSGSIHSVSVVEANYDEYALLFSRGTKGPGQDFRMATLYSRTQTLKDELKEKFTTFSKAQGLTEEDIVFLPQPDKAIQE
4.86

Which kcat/Km is reported for this protein? mouse L-PGDS mutant T147A (Thr^147Ala) in Cys^89,186Ala construct (Mus musculus; C186A/C89A/T147A) (protein) QGHDTVQPNFQQDKFLGRWYSAGLASNSSWFREKKAVLYMCKTVVAPSTEGGLNLTSTFLRKNQAETKIMVLQPAGAPGHYTYSSPHSGSIHSVSVVEANYDEYALLFSRGTKGPGQDFRMAALYSRTQTLKDELKEKFTTFSKAQGLTEEDIVFLPQPDKAIQE
0.95
